Provenance of the data: patent US11566039B2

# Test system: S. pneumoniae ATCC 49619
# PROCEDURE TEXT: MIC against S. pneumoniae ATCC 49619
# Format: cell-based
# EXPERIMENTAL CONTEXT: S. pneumoniae ATCC 49619
MEASURED PROPERTY: log10 of MIC (log10 of the value in µg/mL)

- CCC[C@@H]1C[C@@H](C(=O)N[C@@H]([C@H]2OC(SC)[C@H](O)C(O)C2O)C(C)(C)C(C)N=[N+]=[N-])N(C)C1 (single isomer, unassigned) [FSA-217021a]: 0.30
- CCC[C@@H]1C[C@@H](C(=O)N[C@H]([C@@H]2CCC(O)C2O)[C@H]2OC(SC)[C@H](O)C(O)C2O)N(C)C1 (single isomer, unassigned) [FSA-217039a]: 0.90
- CCC[C@@H]1C[C@@H](C(=O)N[C@H]([C@@H]2CCC(O)C2O)[C@H]2OC(SC)[C@H](O)C(O)C2O)N(C)C1 (single isomer, unassigned) [FSA-217039b]: 0.00
- CCC[C@@H]1C[C@@H](C(=O)N[C@H]([C@@H]2CCCC2N)[C@H]2OC(SC)[C@H](O)C(O)C2O)N(C)C1 (some centres unmarked) [FSA-217045b]: 1.51
- CCC[C@@H]1C[C@@H](C(=O)N[C@@H]([C@H]2OC(SC)[C@H](O)C(O)C2O)C(C)(C)C(C)N=[N+]=[N-])N(C)C1 (single isomer, unassigned) [FSA-217021b]: -0.92

---

# Test system: S. pneumoniae ATCC 49619
# PROCEDURE TEXT: MIC against S. pneumoniae ATCC 49619
# Assay type: cell-based
# EXPERIMENTAL CONTEXT: Streptococcus pneumoniae, ATCC49619, S. pneumoniae ATCC 49619; read-out: MIC
MEASURED PROPERTY: MIC (µg/mL)

• CCC[C@@H]1C[C@@H](C(=O)N[C@H]([C@H](C)N=[N+]=[N-])[C@H]2OC(SC)[C@H](O)C(O)C2O)N(C)C1 (stereo partly drawn) [FSA-215038, 7-(S)-deoxyazidolincomycin] = 0.25
• CCC[C@@H]1C[C@@H](C(=O)N[C@H]([C@H](C)NC(=O)CN(C)C)[C@H]2OC(SC)[C@H](O)C(O)C2O)N(C)C1 (stereo partly drawn) [FSA-215078b] = 8
• CCC[C@@H]1C[C@@H](C(=O)N[C@@H]([C@H]2OC(SC)[C@H](O)C(O)C2O)[C@H](C)n2ccnc2)N(C)C1 (stereo partly drawn) = 16

---

Entries and their measured MIC follow.
# Test system: S. aureus MP-549 msr(a) USA 300
# PROCEDURE TEXT: MIC against S. aureus MP-549 msr(a) USA 300
# Assay type: cell-based
# EXPERIMENTAL CONTEXT: Staphylococcus aureus, USA300, S. aureus MP-549 msr(a) USA 300
MEASURED PROPERTY: MIC (µg/mL)

* C=CC(C)(C)[C@@H](NC(=O)[C@@H]1C[C@@H](CCC)CN1C)[C@H]1OC(SC)[C@H](O)C(O)C1O (stereo partly shown) | 0.25
* CCC[C@@H]1C[C@@H](C(=O)N[C@@H]([C@H]2OC(SC)[C@H](O)C(O)C2O)[C@H](C)N(C)Cc2ccccc2[N+](=O)[O-])N(C)C1 (stereo partly shown) | 4
* CCC[C@@H]1C[C@@H](C(=O)N[C@@H]([C@H]2O[C@H](SC)[C@H](O)[C@@H](O)[C@H]2O)[C@H](C)Cl)N(C)C1 [Clindamycin, clindamycin, reference compound] | 0.125
* CCC[C@@H]1C[C@@H](C(=O)N[C@H]([C@H]2C=CCC2)[C@H]2OC(SC)[C@H](O)C(O)C2O)N(C)C1 (stereo partly shown) | 1
* CCC[C@@H]1C[C@@H](C(=O)N[C@H]([C@H](C)N)[C@H]2OC(SC)[C@H](O)C(O)C2O)N(C)C1 (stereo partly drawn) [FSA-215049, 7-(S)-deoxyaminolincomycin] | 32
* CCC[C@@H]1C[C@@H](C(=O)N[C@H](CN=[N+]=[N-])[C@H]2OC(SC)[C@H](O)C(O)C2O)N(C)C1 (stereo partly shown) | 0.125
* C#C[C@@H](NC(=O)[C@@H]1C[C@@H](CCC)CN1C)[C@H]1OC(SC)[C@H](O)C(O)C1O (stereo partly shown) | 32
* CCC[C@@H]1C[C@@H](C(=O)N[C@H](CNc2ccc(-c3cccnc3)cc2)[C@H]2OC(SC)[C@H](O)C(O)C2O)N(C)C1 (stereo partly shown) | 32
* CCC[C@@H]1C[C@@H](C(=O)N[C@@H]([C@H]2OC(SC)[C@H](O)C(O)C2O)[C@H](C)N(C)C)N(C)C1 (stereo partly shown) | 64
